This collection of values is drawn from BindingDB's records for doi:10.1021/jm0303094.

Can you tell me EC50 for the items I'm about to list?
- assay_explanation: Inhibition of acetylation of histone-4 in human T-24 cancer cells

// EC50 value for O=C(CCc1ccc(NS(=O)(=O)c2ccccc2)cc1)NO : 5 µM

// EC50 value for O=C(/C=C/c1ccc(NS(=O)(=O)c2ccc(-c3ccccc3)cc2)cc1)NO : 1 µM

// EC50 value for Cc1ccc(S(=O)(=O)Nc2ccc(/C=C/C(=O)NO)cc2)cc1 : 10 µM

// EC50 value for CN(c1ccc(/C=C/C(=O)NO)cc1)S(=O)(=O)c1ccccc1 : > 25 µM

// EC50 value for O=C(Cc1ccc(NS(=O)(=O)c2ccccc2)cc1)NO : > 25 µM

// EC50 value for CC(Cc1ccc(NS(=O)(=O)c2ccccc2)cc1)C(=O)NO (stereo unspecified) : > 25 µM

---

Can you tell me pIC50 for the items I'm about to list?
- target: Histone deacetylase
- assay_explanation: Inhibitory concentration determined against Histone deacetylase from Eimeria tenella
Bear in mind: pIC50 is minus log10 of a mol/L concentration; give just that figure.

// pIC50 value for CCC(C)[C@@H]1NC(=O)[C@H](Cc2cn(OC)c3ccccc23)NC(=O)[C@H](CCCCCC(=O)O)NC(=O)[C@H]2CCCCN2C1=O (stereo not given in full) : 7.52

// pIC50 value for CCC(C)[C@@H]1NC(=O)[C@H](Cc2cn(OC)c3ccccc23)NC(=O)[C@H](CCCCCC(=O)C2CO2)NC(=O)[C@H]2CCCCN2C1=O (stereo not given in full) : 9.00

// pIC50 value for CCC(C)[C@@H]1NC(=O)[C@H](Cc2cn(OC)c3ccccc23)NC(=O)[C@H](CCCCCC(=O)NO)NC(=O)[C@H]2CCCCN2C1=O (stereo not given in full) : 8.40

// pIC50 value for CCC(C)[C@@H]1NC(=O)[C@H](Cc2cn(OC)c3ccccc23)NC(=O)[C@H](CCCCCC(=O)OC)NC(=O)[C@H]2CCCCN2C1=O (stereo not given in full) : 9.10

// pIC50 value for CCC(C)[C@@H]1NC(=O)[C@H](Cc2cn(OC)c3ccccc23)NC(=O)[C@H](CCCCCC(=O)C(C)O)NC(=O)[C@H]2CCCCN2C1=O (stereo not given in full) : 8.40

---

Can you tell me pEC50 for the items I'm about to list?
- assay_explanation: Inhibition of acetylation of histone-4 in human T-24 cancer cells
Bear in mind: pEC50 is minus log10 of a mol/L concentration; give just that figure.

// pEC50 value for O=C(NO)c1ccc(NS(=O)(=O)c2ccccc2)cc1 : 5.30

// pEC50 value for COc1ccc(S(=O)(=O)Nc2ccc(/C=C/C(=O)NO)cc2)cc1 : 5.30

// pEC50 value for COc1ccc(S(=O)(=O)Nc2ccc(/C=C/C(=O)NO)cc2)cc1OC : 6.00

// pEC50 value for O=C(/C=C/c1ccc(S(=O)(=O)Nc2ccc(-c3ccccc3)cc2)cc1)NO : 6.00

// pEC50 value for Cc1ccc(NS(=O)(=O)c2ccc(/C=C/C(=O)NO)cc2)cc1 : 6.00
